Cited source: patent US20210024646A1

# Experimental Target: T1, CD73 on the surface of human tumor cells (human, UniProt P21589 27-549)
# T1 chain: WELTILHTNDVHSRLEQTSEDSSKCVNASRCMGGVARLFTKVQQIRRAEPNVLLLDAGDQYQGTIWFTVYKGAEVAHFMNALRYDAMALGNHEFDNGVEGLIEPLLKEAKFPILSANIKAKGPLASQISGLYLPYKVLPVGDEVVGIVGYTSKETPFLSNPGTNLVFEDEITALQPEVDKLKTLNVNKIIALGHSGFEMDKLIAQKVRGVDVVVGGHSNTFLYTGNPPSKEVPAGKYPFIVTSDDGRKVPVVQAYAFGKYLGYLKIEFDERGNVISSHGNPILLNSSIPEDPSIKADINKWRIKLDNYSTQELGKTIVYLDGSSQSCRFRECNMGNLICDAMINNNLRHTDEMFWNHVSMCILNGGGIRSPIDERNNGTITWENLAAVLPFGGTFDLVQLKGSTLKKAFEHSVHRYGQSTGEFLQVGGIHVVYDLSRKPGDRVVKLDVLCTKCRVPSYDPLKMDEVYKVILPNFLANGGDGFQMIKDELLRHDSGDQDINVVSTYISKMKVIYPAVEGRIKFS
# Test Name: FACS; NCI-H1299 cells, left table
Observed Property: EC50 (pM)
State just the number; it will be interpreted in pM.

Some solved cases for reference:
Binder: mAb002c (antibody, V domains shown) VH: QVQLQQPGAELVKPGASVRLSCKASGYTLTSYWMHWVKKRPGQGLEWIGEINPSNGRSNYNEKFKSKATLTVDRSSSTVYMQLGSLTSEDSAVYYCARRGVSGNYFDYWGQGTTLTVSS VL: DIKMTQSPSSMYASLGERVTMTCKASQDINTYLSWFQQKPGKSPKTLIYRSNILVDGVPSRFSGSRSGQDYYLTITSLEYEDMGIYYCLQYDEFPYTFGGGTKLELK
Measurement Units: pM
EC50: 658
//
Binder: Hu002c-6 (antibody, V domains shown) VH: QVQLVQSGAEVKKPGASVKVSCKASGYTLTSYWMHWVRQAPGQGLEWIGEINPSQGRSNYNEKFKSRVTLTVDRSTSTVYMELSSLRSEDTAVYYCARRGVSGNYFDYWGQGTLVTVSS VL: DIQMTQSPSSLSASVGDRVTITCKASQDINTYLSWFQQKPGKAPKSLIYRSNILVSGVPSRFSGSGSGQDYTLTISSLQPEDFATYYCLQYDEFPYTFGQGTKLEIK
Measurement Units: pM
EC50: 836

Prompt: What does the data say about its EC50? Entry: Hu002c-4 (antibody, V domains shown) VH: QVQLVQSGAEVKKPGASVKVSCKASGYTLTSYWMHWVRQAPGQGLEWMGEINPSQGRSNYNEKFKSRVTMTRDTSTSTVYMELSSLRSEDTAVYYCARRGVSGNYFDYWGQGTLVTVSS VL: DIQMTQSPSSLSASVGDRVTITCKASQDINTYLSWFQQKPGKSPKSLIYRSNILVSGVPSRFSGSGSGQDYTLTISSLQPEDFAIYYCLQYDEFPYTFGGGTKLEI
Response: 873
